Hi there, I'd appreciate the recorded IC50 at 3 days for every entry that follows.
- assay.procedure: Cytotoxicity on the MCF-10A cell line
- Assay type: cell-based
- condition.details: human, MCF-10A cells; incubation time 3 days; 1 nM-100 μM
Please give a number only; it is taken to be in nM.

# return recorded IC50 at 3 days for entry CC(=O)O[C@H]1C(=O)[C@@]2(C)[C@H]([C@H](OC(=O)c3ccccc3)[C@]3(O)C[C@H](OC(=O)[C@H](O)[C@@H](NC(=O)c4ccccc4)c4ccccc4)C(C)=C1C3(C)C)[C@]1(OC(C)=O)CO[C@@H]1C[C@@H]2O 0.637

Give IC50 at 3 days for CCCCCCCCCN1C[C@]2(CC[C@H]3[C@@H]4CC[C@H]5NC(=O)CC[C@]5(C)[C@H]4CC[C@@]32C)OC1=O 2670

###

- assay.procedure: Cytotoxicity on the MCF-7 cell line
- Format: cell-based
- condition.details: human, MCF-7 cells; incubation time 3 days; 1 nM-100 μM
Hi there, I'd appreciate the recorded IC50 at 3 days for every entry that follows.
Just the number please, in nM, no unit attached.

// fetch IC50 at 3 days given entry CC(=O)O[C@H]1C(=O)[C@@]2(C)[C@H]([C@H](OC(=O)c3ccccc3)[C@]3(O)C[C@H](OC(=O)[C@H](O)[C@@H](NC(=O)c4ccccc4)c4ccccc4)C(C)=C1C3(C)C)[C@]1(OC(C)=O)CO[C@@H]1C[C@@H]2O [Paclitaxel (PTX), Paclitaxel] 3.08

// Input: CCCCCCCCCN1C[C@]2(CC[C@H]3[C@@H]4CC[C@H]5NC(=O)CC[C@]5(C)[C@H]4CC[C@@]32C)OC1=O [INH7-464] . Output its IC50 at 3 days only. 582

Origin of measurements: patent US12662509B2
